- TESTED_ON: T1, FC5DIE3IR recombinant protein
- T1 construct: Made in CHO-3E7 cells; also called FC5DIE31R; FC5DIE3R
- ASSAY_NOTES: ELISA on coated FC5DIE3IR, serial dilutions of purified mAb; fit One site - Specific binding with Hill slope
Bmax for assorted binders
Report only the number, with the unit OD405 nm understood.

BINDER	RESULT_UNITS	Bmax
mAb 1G5 (antibody, V domains shown, also called negative control) VH: QVQLQQPGAELVKPGASVKLSCKASGYTFTSYWINWVKQRPGQGLEWIGNIYPGNSNTNYNEKFKSKATLTVDKSSSTAYMQLSSLTSEDSAVYYCARRYYYDYDDAMDYWGQGTSVTVSS VL: DIVLTQSPASLAVSLGQRATISCRASESVDSYGNGFMHWYQQKPGQPPKLLIYRASNLESGIPARVSGSGSRTDFTLTINPVEADDVATYYCQQSNEDPWTFGGGTKLEIK	OD405 nm	0.635

Please report Bmax for the following binder: anti-hNav1.7 mAb 1H5 (antibody, V domains shown) VH: EVKLVESGGGLVKPGGSLKLSCAASGFTFRSYAMSWVRQTPEKGLEWVASISSGGSTYYPDSVKGRFTISRDNAGNILYLQMSSLRSEDTAMYYCARGYDGYYERIWYYAMDYWGQGTSVTVSS VL: DIVMTQSQKFMSTSVGDRVTVSCKASQNVGTIVAWYQQKPGQSPKALIYSASYRFSGVPDRFTGSGSGTDFTLTISNVQSEDLAEYFCQQYNTYPLTFGSGTKLEIK
0.583

Please report Bmax for the following binder: anti-hNav1.7 mAb 2G11 (antibody, V domains shown) VH: QVQLQQPGAELVKPGASVKLSCKASGYTFTTYWMHWVKQRPGQGLEWIGEINPSNGRANYNEKFKSKATLTVDKSSSTAYMQLSSLTSEDSAVYYCLRSLGYFDYWGQGTTLTVSS VL: DVVMTQSPLSLPVSLGDQASISCRSSQSLVHSNGNTYLHWYLQKAGQSPKFLIYKVSNRFSGVPDRFSGSGSGTDFTLKISRVEAEDLGVYFCSQSTHVPYTFGGGTKLEIK
1.84

Please report Bmax for the following binder: anti-hNav1.7 mAb 3A8 (antibody, V domains shown, also called F233-3A8) VH: QVQLQQPGAELVKPGASVKLSCKASGYTFTNYWMHWVKQRPGQGLEWIGEINPSNGRANYNEKFKSKATLTVDKSSSTAYMQLSSLTSEDSAVYYCARSPYGYYDYWGQGTTLTVSS VL: DVLMTQTPLSLPVSLGDQASISCRSSQSLLHSNGNTYFHWYLQKPGQSPKLLIYKVSNRFFGVPDRFSGSGSGTDFTLKISRVEAEDLGVYFCSQITHVPLTFGAGTKLELK
2.15
